Cited source: PubChem BioAssay (NCI)

Test system: TK-10 renal
test details: NCI tumour cell line growth inhibition, 48 h; in the data active = GI50 below about 0.43 µM; inactive = the rest
*1 amine or outer side, *2 acyl side, *3 side chain or, on linkers, in order; H or OH if unused. Where a SMILES comes first, the peptide text is derived from it. Bridges are numbered along the chain shown (N, C = ends). [ ]: non-standard residue; d: D form. The star is where a group is joined. Phe(3,5-F2) = N[C@@H](Cc1cc(F)cc(F)c1)C(=O)O; Pro(4R-Me) = C[C@H]1CN[C@H](C(=O)O)C1; aThr = C[C@H](O)[C@H](N)C(=O)O; Pip = O=C(O)[C@@H]1CCCCN1; X10 = Fc1cc(C2CC2)ccc1N*; CO = O=C([*:1])[*:2]
Outcomes: True (active), False (inactive)

[[record]]
molecule = "NC(N)=NS(=O)(=O)c1ccc(Nc2c3ccccc3nc3c(C(=O)NCCO)cccc23)cc1"
label = "False"

[[record]]
molecule = "CCN1CCN(Cc2ccc(NC(=O)c3cccc(C#Cc4cccc5[nH]nc(N)c45)c3)cc2C(F)(F)F)CC1"
label = "False"

[[record]]
molecule = "C[C@@H]1C[C@H]2C(=O)O[C@@H](C)[C@H](NC(=O)[C@H](Cc3cc(F)cc(F)c3)NC(=O)Nc3ccc(C4CC4)cc3F)C(=O)N3CCC[C@H]3C(=O)N3CCCC[C@H]3C(=O)N[C@@H](C)C(=O)N2C1 ({X10-CO}-[Phe(3,5-F2)][aThr]P[Pip]A[Pro(4R-Me)]; ester 2-C)"
label = "True"

[[record]]
molecule = "CCN1/C(=C\\c2cc[n+](CC)c3ccccc23)C=Cc2ccccc21"
label = "False"

[[record]]
molecule = "Fc1[nH]nc2ccc([C@@H]3Nc4ccc5[nH]ncc5c4[C@H]4C5CCC(C5)[C@@H]34)cc12 (some centres not stated)"
label = "False"

[[record]]
molecule = "CCC(=O)[C@H](C)[C@@H](OC(=O)[C@H](C)CC)[C@H](C)[C@H]1OC(CC)=C(C)C(=O)[C@@H]1C"
label = "False"

[[record]]
molecule = "C=CC(=O)Nc1cc(Nc2ncc(C(=O)OC(C)C)c(-c3cn(C)c4ccccc34)n2)c(OC)cc1N(C)CCN(C)C"
label = "True"

[[record]]
molecule = "OCCN(CCO)c1ncnc2c1ncn2Cc1ccc(CCl)cc1"
label = "False"

[[record]]
molecule = "Nc1ccccc1C#C/C=C\\C#Cc1ccccc1OC(F)(F)F"
label = "False"

[[record]]
molecule = "Cc1ccc2c(C)c3c(ccc4ccccc43)c[n+]2c1"
label = "False"

[[record]]
molecule = "CC1CCc2nc[nH]c(=O)c21 (configuration not stated)"
label = "False"

[[record]]
molecule = "COc1cc2c(cc1OCCCCN1CCN(CC(=O)Nc3ccc(Cl)cc3C(=O)c3ccccc3Cl)CC1)N=CC1CCCN1C2=O (configuration not stated)"
label = "True"

[[record]]
molecule = "Nc1c(C(=O)c2cccc(CCS(N)(=O)=O)c2)cnn1-c1ccc(F)cc1"
label = "False"

[[record]]
molecule = "CCCCCCCCCCCCCC(=O)OC(/C=C/C(C)C)C(O)C(O)C(OC)C(=O)NC1CCCCN(C)C1=O (configuration not stated)"
label = "False"

[[record]]
molecule = "O=C(NC(=O)c1ccccc1[N+](=O)[O-])Nc1ccc(Oc2ncc(Br)cn2)c(Cl)c1"
label = "False"

[[record]]
molecule = "COc1cc2c(c(OC)c1OC)-c1ccc(NNC(N)=S)c(=O)cc1[C@@H](NC(C)=O)CC2"
label = "False"

[[record]]
molecule = "O=C1NC(=NCCc2cccc(F)c2)S/C1=C\\c1ccc2ncccc2c1"
label = "False"

